biological target: human PDE10A (Homo sapiens (Human))
pIC50: −log10 of the molar value.
reported endpoint: pIC50

A = CN(C)C(=O)c1cccc(F)c1NC(=O)c1nc(C2CC2)cnc1Nc1cncnc1
B = CNC(=O)c1nn(C)cc1NC(=O)c1nc(C2CC2)cnc1Nc1cncnc1
Query: Given the two records A and B , choose the one whose pIC50 value is lower. Could you answer with the label of the item you picked?
Result: A

I = O=C(Nc1cncnc1C(=O)N1CCC1)c1nc(C2CC2)cnc1Nc1cncnc1
II = Cn1cc(NC(=O)c2nc(C3CC3)ccc2Nc2cncnc2)c(C(=O)NC2CCCC2)n1
III = CCN(C)C(=O)c1ncncc1NC(=O)c1nc(C2CC2)cnc1Nc1cncnc1
IV = CN(C(=O)c1nn(C)cc1NC(=O)c1nc(C2CC2)ccc1Nc1cncnc1)C1CCCCC1
V = O=C(Nc1cc(F)ccc1C(=O)N1CCC1)c1nc(C2CC2)cnc1Nc1cncnc1
Query: Order the entries by their reported pIC50, beginning at the minimum. To answer, write out the labels according to the requested order.
Result: I, III, IV, II, V
(I: 5.58, III: 7.28, IV: 7.90, II: 8.35, V: 9.00)

A = CNC(=O)c1nn(C)cc1NC(=O)c1nc(C2CC2)ccc1Nc1cncnc1
B = CC(C)N(C)C(=O)c1nn(C)cc1NC(=O)c1nc(C2CC2)ccc1Nc1cncnc1
Query: Hi, I'm comparing A with B and wondering which one has the bigger number for pIC50. Any idea? Could you answer with the label of the item you picked?
Result: A

* * *

In what follows, each item is paired with its pIC50 for human PDE10A (Homo sapiens (Human), UniProt Q9Y233).
pIC50: −log10 of the molar value.
reported endpoint: pIC50

Observe how each entry below is paired with its result.
Query: Complete the entry with pIC50 for CNC(=O)c1c(NC(=O)c2nc(N3CCN(C)CC3)cnc2Nc2cncnc2)cnn1C [Example 333]
Result: 6.16

Query: Complete the entry with pIC50 for CNC(=O)c1c(NC(=O)c2nc(C3CC3)ncc2Nc2cncnc2)cnn1C [Example 314]
Result: 7.46

I = CNC(=O)c1c(NC(=O)c2nc(C(C)C)ncc2Nc2cccc(F)c2)cnn1C [Example 188]
II = CNC(=O)c1cc(CCC(=O)O)ccc1NC(=O)c1nc(C2CC2)cnc1Nc1cncnc1 [Example 328]
Query: Given the two records I and II , choose the one whose pIC50 value is lower. Could you answer with the label of the item you picked?
Result: I
(I: 7.29, II: 9.40)

* * *

In what follows, each item is paired with its pIC50 for human PDE10A (Homo sapiens (Human), UniProt Q9Y233).
pIC50: −log10 of the molar value.
reported endpoint: pIC50

Observe how each entry below is paired with its result.
Query: Complete the entry with pIC50 for O=C(Nc1ccc(C2CC2)nc1C(=O)N1CCC1)c1nc(C2CC2)cnc1Nc1cncnc1
Result: 8.07

Query: Complete the entry with pIC50 for CNC(=O)c1nc(-c2ccccn2)sc1NC(=O)c1nc(C2CC2)ccc1Nc1cncnc1
Result: 8.85

Query: Complete the entry with pIC50 for CNC(=O)c1c(NC(=O)c2nc([C@H]3CCOC3)cnc2Nc2cncnc2)cnn1C
Result: 7.92

A = CNC(=O)c1c(NC(=O)c2nc(C3CC3)cnc2Nc2cncnc2)cnn1CCC(F)(F)F
B = COC1CCN(C(=O)c2nn(C)cc2NC(=O)c2nc(C3CC3)ccc2Nc2cncnc2)C1 (centres unmarked)
Query: Hi, I'm comparing A with B and wondering which one has the bigger number for pIC50. Any idea? Could you answer with the label of the item you picked?
Result: B
(B: 8.08, A: 7.71)

* * *

target: human PDE10A (Homo sapiens (Human))
reported endpoint: IC50 (nM)

Observe how each entry below is paired with its result.
Query: Recall the reported IC50 of Cn1ncc(NC(=O)c2nc(C3CC3)cnc2Nc2cncnc2)c1C(=O)NC1CCNC1 (stereo not shown) on human PDE10A (Homo sapiens (Human)) and write it down.
Result: 137

Query: Recall the reported IC50 of O=C(NCCO)c1ccncc1NC(=O)c1nc(C2CC2)ccc1Nc1cncnc1 on human PDE10A (Homo sapiens (Human)) and write it down.
Result: 3.3

Query: Recall the reported IC50 of CNC(=O)c1c(NC(=O)c2nc(C3CC3)cnc2Nc2cncnc2)ccc(F)c1F on human PDE10A (Homo sapiens (Human)) and write it down.
Result: 2.7

Query: Recall the reported IC50 of CC(C)(O)CNC(=O)c1nc(C2CCCO2)ccc1NC(=O)c1nc(C2CC2)cnc1Nc1cncnc1 (stereo not shown) on human PDE10A (Homo sapiens (Human)) and write it down.
Result: 0.1

Query: Recall the reported IC50 of CNC(=O)c1cccc(F)c1NC(=O)c1nc(C2CC2)cnc1Nc1cncnc1 on human PDE10A (Homo sapiens (Human)) and write it down.
Result: 2.8

I = CNC(=O)c1c(NC(=O)c2nc(COC)ccc2Nc2cncnc2)cnn1C
II = CCn1cc(NC(=O)c2nc(C3CC3)cnc2Nc2cncnc2)c(C(=O)NCC2CCCO2)n1 (stereo not shown)
Query: Hi, I'm comparing I with II and wondering which one has the bigger number for IC50. Any idea? Could you answer with the label of the item you picked?
Result: I

* * *

pIC50: −log10 of the molar value.
In what follows, each item is paired with its pIC50 for UniProt Q9Y233.
reported endpoint: pIC50

Query: Recall the reported pIC50 of COCC(C)NC(=O)c1ccncc1NC(=O)c1nc(C2CC2)ccc1Nc1cncnc1 (centres unmarked) [Example 72] on UniProt Q9Y233 and write it down.
Result: 8.38

Query: Recall the reported pIC50 of CNC(=O)c1cc(F)c(F)cc1NC(=O)c1nc(C2CC2)cnc1Nc1cncnc1 [Example 288] on UniProt Q9Y233 and write it down.
Result: 9.10

Query: Recall the reported pIC50 of Cn1ncc(NC(=O)c2nc(C3CC3)cnc2Nc2cncnc2)c1C(=O)NCCF [Example 171] on UniProt Q9Y233 and write it down.
Result: 8.55

Query: Recall the reported pIC50 of CNC(=O)c1ccccc1NC(=O)c1nc(C2CC2)ccc1Nc1cncnc1 [Example 29] on UniProt Q9Y233 and write it down.
Result: 8.89

A = CNC(=O)c1nc(C)ccc1NC(=O)c1nc(C2CC2)cnc1Nc1cncnc1 [Example 182]
B = CNC(=O)c1ccc(F)cc1NC(=O)c1nc(C2CC2)cnc1Nc1cncnc1 [Example 292]
C = COCCN(C)C(=O)c1ncccc1NC(=O)c1nc(C2CC2)cnc1Nc1cncnc1 [Example 117]
D = CC(C)(O)CNC(=O)c1ccncc1NC(=O)c1nc(C2CC2)ccc1Nc1cncnc1 [Example 70]
Query: Order the entries by their reported pIC50, beginning at the minimum. To answer, write out the labels according to the requested order.
Result: C, A, D, B

* * *

biological target: human PDE10A (Homo sapiens (Human))
reported endpoint: IC50 (nM)

Observe how each entry below is paired with its result.
Query: Complete the entry with IC50 for CNC(=O)c1cn2cc(-c3ccccc3)nc2cc1NC(=O)c1nc(C2CC2)ccc1Nc1cncnc1
Result: 0.4

Query: Complete the entry with IC50 for COCC(C)(C)CNC(=O)c1ccncc1NC(=O)c1nc(C2CC2)cnc1Nc1cncnc1
Result: 1.1

Query: Complete the entry with IC50 for CN(C)C(=O)c1c(F)cc(F)cc1NC(=O)c1nc(C2CC2)cnc1Nc1cncnc1
Result: 16.7

1 = O=C(Nc1ccc(F)cc1C(=O)N1CCC1)c1nc(C2CC2)cnc1Nc1cncnc1
2 = CC(C)n1ncc(NC(=O)c2nc(C3CC3)cnc2Nc2cncnc2)c1C(=O)NCC(C)(C)O
Query: Given the two records 1 and 2 , choose the one whose IC50 value is lower. Could you answer with the label of the item you picked?
Result: 1

* * *

target: human PDE10A (Homo sapiens (Human), UniProt Q9Y233)
Sequence (Q9Y233 other isoform, or with tags, fused parts or gaps): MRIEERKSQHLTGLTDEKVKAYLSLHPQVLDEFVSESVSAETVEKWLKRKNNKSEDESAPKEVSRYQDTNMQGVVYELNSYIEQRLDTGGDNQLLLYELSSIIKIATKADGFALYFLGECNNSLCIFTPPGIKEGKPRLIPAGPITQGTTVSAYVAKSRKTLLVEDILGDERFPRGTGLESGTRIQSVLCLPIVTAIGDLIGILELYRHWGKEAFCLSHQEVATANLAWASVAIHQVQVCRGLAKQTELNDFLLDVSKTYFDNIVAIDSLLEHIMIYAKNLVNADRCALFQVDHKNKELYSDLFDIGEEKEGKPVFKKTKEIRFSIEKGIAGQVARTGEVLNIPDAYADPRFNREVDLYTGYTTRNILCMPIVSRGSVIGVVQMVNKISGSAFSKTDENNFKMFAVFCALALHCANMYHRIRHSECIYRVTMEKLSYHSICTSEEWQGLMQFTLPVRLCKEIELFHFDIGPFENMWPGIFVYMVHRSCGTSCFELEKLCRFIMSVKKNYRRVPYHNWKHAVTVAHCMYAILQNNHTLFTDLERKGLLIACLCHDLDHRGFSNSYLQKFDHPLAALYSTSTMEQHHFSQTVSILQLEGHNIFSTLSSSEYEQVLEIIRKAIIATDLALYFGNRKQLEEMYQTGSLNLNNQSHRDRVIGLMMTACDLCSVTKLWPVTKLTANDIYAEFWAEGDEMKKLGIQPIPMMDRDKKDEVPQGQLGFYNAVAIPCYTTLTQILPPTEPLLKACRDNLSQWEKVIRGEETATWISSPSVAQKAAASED
reported endpoint: IC50 (nM)

Observe how each entry below is paired with its result.
Query: Complete the entry with IC50 for Cc1ncc(Nc2cncnc2)c(C(=O)Nc2cn(C)nc2C(=O)NCC(C)(C)O)n1
Result: 79.6

Query: Complete the entry with IC50 for CC(C)(O)CNC(=O)c1ccncc1NC(=O)c1nc(C(C)(C)C)ncc1Nc1cncnc1
Result: 4.3

Query: Complete the entry with IC50 for Cn1cc(NC(=O)c2nc(C3CC3)ccc2Nc2cncnc2)c(C(=O)N2CCNC(=O)C2)n1
Result: 13.2

1 = CNC(=O)c1cc(OCCO)ccc1NC(=O)c1nc(C2CC2)cnc1Nc1cncnc1
2 = CNC(=O)c1nc(-c2ccccc2)sc1NC(=O)c1nc(C2CC2)ccc1Nc1cncnc1
Query: Hi, I'm comparing 1 with 2 and wondering which one has the bigger number for IC50. Any idea? Could you answer with the label of the item you picked?
Result: 2

P = CN(CC(O)CO)C(=O)c1ccncc1NC(=O)c1nc(C2CC2)ccc1Nc1cncnc1 (stereo not drawn)
Q = CN(CC(C)(C)O)C(=O)c1nn(C)cc1NC(=O)c1nc(C2CC2)cnc1Nc1cncnc1
Query: Given the two records P and Q , choose the one whose IC50 value is lower. Could you answer with the label of the item you picked?
Result: Q

A = CNC(=O)c1c(NC(=O)c2nc(C(C)O)cnc2Nc2cncnc2)cnn1C (stereo not drawn)
B = CNC(=O)c1nn(C)cc1NC(=O)c1nc(NCCOC)ncc1Nc1cncnc1
C = CCN(C)C(=O)c1ncccc1NC(=O)c1nc(C2CC2)cnc1Nc1cncnc1
D = CNC(=O)c1cc(OCC(C)(C)O)ccc1NC(=O)c1nc(C2CC2)cnc1Nc1cncnc1
E = CC(CO)NC(=O)c1nn(C)cc1NC(=O)c1nc(C2CC2)ccc1Nc1cncnc1 (stereo not drawn)
Query: Order the entries by their reported IC50, beginning at the minimum. To answer, write out the labels according to the requested order.
Result: D, C, E, A, B

a = COCCN(C)C(=O)c1ncncc1NC(=O)c1nc(C2CC2)cnc1Nc1cncnc1
b = CNC(=O)c1c(NC(=O)c2nc(C3CC3)cnc2Nc2cncnc2)cnn1CC(C)C
Query: Given the two records a and b , choose the one whose IC50 value is lower. Could you answer with the label of the item you picked?
Result: b
